assay: Plasma clearance in rat at 3 mg/kg, iv; format: ADME, organism-based; parameters: dose 3 mg/kg, route intravenous

| Chem smiles | Measurement unit | clearance |
| --- | --- | --- |
| CCN(C(=O)C(=O)N(C)C)c1cccn2c(=O)c(O)c(C(=O)NCc3ccc(F)cc3)nc12 | mL/min/kg | 24 |
